test_target: T1, EsCas13d, nuclease-dead (Eubacterium siraeum, UniProt B0MS50, R295A;H300A;R849A;H854A)
T1 sequence: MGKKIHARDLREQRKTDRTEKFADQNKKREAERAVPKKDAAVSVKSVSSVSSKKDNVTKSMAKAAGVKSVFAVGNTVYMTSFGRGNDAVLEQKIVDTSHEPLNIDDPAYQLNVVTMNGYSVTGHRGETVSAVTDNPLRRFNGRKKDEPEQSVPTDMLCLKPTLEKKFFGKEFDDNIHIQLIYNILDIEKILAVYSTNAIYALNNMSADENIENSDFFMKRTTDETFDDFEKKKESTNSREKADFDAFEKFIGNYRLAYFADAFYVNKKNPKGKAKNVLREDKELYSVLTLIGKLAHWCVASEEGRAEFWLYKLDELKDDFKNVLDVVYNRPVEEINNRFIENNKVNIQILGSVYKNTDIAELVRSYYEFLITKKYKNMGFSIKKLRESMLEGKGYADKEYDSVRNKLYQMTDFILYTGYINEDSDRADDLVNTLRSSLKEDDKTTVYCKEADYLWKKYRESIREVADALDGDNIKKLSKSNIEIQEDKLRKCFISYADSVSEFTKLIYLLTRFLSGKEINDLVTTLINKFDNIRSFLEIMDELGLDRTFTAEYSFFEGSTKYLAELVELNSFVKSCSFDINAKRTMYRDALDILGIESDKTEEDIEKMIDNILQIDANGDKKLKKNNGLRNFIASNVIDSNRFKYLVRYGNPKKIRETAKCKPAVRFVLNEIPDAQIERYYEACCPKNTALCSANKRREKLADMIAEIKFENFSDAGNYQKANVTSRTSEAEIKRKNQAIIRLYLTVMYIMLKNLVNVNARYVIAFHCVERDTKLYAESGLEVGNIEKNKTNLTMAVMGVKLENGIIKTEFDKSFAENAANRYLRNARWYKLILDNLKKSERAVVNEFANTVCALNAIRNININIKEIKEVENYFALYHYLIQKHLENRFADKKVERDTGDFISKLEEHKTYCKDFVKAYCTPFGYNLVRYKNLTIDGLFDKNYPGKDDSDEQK
experimental_details: crRNA (strand 1, pre-loaded); Mg2+; 40 mM Tris-HCl pH 7.5, 150 mM NaCl, 6 mM MgCl2, 1 mM DTT, 0.1% Tween-20, 0.2 mg/ml BSA; 25 C; 10 min per concentration, then washed
protocol_conditions: tags: His6-TwinStrep-SUMO cleaved; N-terminal SNAP kept (SNAP-Surface 488); label: 3' end held by stalled T7 RNA polymerase
Entries get a class label from measured Kd. See ranges: lowest = under 10 nM, middle = from 10 nM up to 40 nM, highest = 40 nM and over

binder: target 3 G4C,U20C (mixed) RNA 1: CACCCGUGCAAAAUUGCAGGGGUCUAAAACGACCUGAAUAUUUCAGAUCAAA RNA 2: GGGAAUGGAUCCACAUCUACGAAUUCGUUUUCGAUCUGAAAUAUUCACGUCUGCAGAUCGGAAGAGCACACGU
assigned_category: highest
--
binder: target 3 insA 3' of 22,insG 3' of 22 (mixed) RNA 1: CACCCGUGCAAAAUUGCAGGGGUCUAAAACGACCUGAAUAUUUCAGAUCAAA RNA 2: GGGAAUGGAUCCACAUCUACGAAUUCGUUUAGUUGAUCUGAAAUAUUCAGGUCUGCAGAUCGGAAGAGCACACGU
assigned_category: highest
--
binder: target 1 insG 3' of 20,insG 3' of 7 (mixed) RNA 1: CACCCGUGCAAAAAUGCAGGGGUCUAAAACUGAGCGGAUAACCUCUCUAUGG RNA 2: GGGAAUGGAUCCACAUCUACGAAUUCGUACCAGUAGAGAGGUUAUCGCGCUCACCGAGAUCGGAAGAGCACACGU
assigned_category: middle
--
binder: target 1 U3A,C22A (mixed) RNA 1: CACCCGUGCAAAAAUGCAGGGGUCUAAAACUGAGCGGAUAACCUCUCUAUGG RNA 2: GGGAAUGGAUCCACAUCUACGAAUUCGUAACAUAGAGAGGUUAUCCGCACACCGAGAUCGGAAGAGCACACGU
assigned_category: highest
--
binder: target 1 MT 5'PFS GUG 3'PFS GCU (mixed) RNA 1: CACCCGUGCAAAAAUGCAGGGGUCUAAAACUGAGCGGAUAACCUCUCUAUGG RNA 2: GGGAAUGGAUCCACAUCUACGAAUUCGUGCCAUAGAGAGGUUAUCCGCUCAGCUAGAUCGGAAGAGCACACGU
assigned_category: lowest
--
binder: target 2 MT 5'PFS GUG 3'PFS AUA (mixed) RNA 1: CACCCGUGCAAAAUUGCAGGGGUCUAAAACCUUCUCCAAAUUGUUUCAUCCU RNA 2: GGGAAUGGAUCCACAUCUACGAAUUCGUGAGGAUGAAACAAUUUGGAGAAGAUAAGAUCGGAAGAGCACACGU
assigned_category: middle
--
binder: target 1 A1U,A9C (mixed) RNA 1: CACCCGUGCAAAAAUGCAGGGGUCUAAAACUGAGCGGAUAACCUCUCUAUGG RNA 2: GGGAAUGGAUCCACAUCUACGAAUUCGUACCAUAGAGAGGUUCUCCGCUCUCCGAGAUCGGAAGAGCACACGU
assigned_category: middle
--
binder: target 1 C2A,C7A (mixed) RNA 1: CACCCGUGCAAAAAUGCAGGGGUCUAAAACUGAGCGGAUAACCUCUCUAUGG RNA 2: GGGAAUGGAUCCACAUCUACGAAUUCGUACCAUAGAGAGGUUAUACGCUAACCGAGAUCGGAAGAGCACACGU
assigned_category: lowest
--
binder: target 1 insC 3' of 17,insA 3' of 7 (mixed) RNA 1: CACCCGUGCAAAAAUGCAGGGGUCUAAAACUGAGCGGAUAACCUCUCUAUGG RNA 2: GGGAAUGGAUCCACAUCUACGAAUUCGUACCAUAGCAGAGGUUAUCACGCUCACCGAGAUCGGAAGAGCACACGU
assigned_category: middle
--
binder: target 3 U2C,G4A (mixed) RNA 1: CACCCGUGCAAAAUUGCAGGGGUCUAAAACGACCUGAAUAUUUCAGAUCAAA RNA 2: GGGAAUGGAUCCACAUCUACGAAUUCGUUUUUGAUCUGAAAUAUUCAAGCCUGCAGAUCGGAAGAGCACACGU
assigned_category: middle
--
binder: target 1 MT 5'PFS GCU 3'PFS UGC (mixed) RNA 1: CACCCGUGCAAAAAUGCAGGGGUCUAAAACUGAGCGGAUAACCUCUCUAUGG RNA 2: GGGAAUGGAUCCACAUCUACGAAUUCGCUCCAUAGAGAGGUUAUCCGCUCAUGCAGAUCGGAAGAGCACACGU
assigned_category: middle
--
binder: target 1 insC 3' of 18,insU 3' of 12 (mixed) RNA 1: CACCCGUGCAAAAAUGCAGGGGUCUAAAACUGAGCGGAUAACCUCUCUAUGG RNA 2: GGGAAUGGAUCCACAUCUACGAAUUCGUACCAUACGAGAGGUUUAUCCGCUCACCGAGAUCGGAAGAGCACACGU
assigned_category: middle
--
binder: target 2 MT 5'PFS UAC 3'PFS UUA (mixed) RNA 1: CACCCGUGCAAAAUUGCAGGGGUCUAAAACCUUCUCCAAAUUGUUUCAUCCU RNA 2: GGGAAUGGAUCCACAUCUACGAAUUCUACAGGAUGAAACAAUUUGGAGAAGUUAAGAUCGGAAGAGCACACGU
assigned_category: middle
--
binder: target 2 MT 5'PFS CUG 3'PFS AUC (mixed) RNA 1: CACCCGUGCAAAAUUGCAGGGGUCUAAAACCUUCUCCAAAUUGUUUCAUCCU RNA 2: GGGAAUGGAUCCACAUCUACGAAUUCCUGAGGAUGAAACAAUUUGGAGAAGAUCAGAUCGGAAGAGCACACGU
assigned_category: lowest
